target: T1, recombinant human CD4 (catalogue number: 514-CD/CF, manufactured by R&D Systems) (human, UniProt P01730 26-390); test: SPR, Biacore T100; antibody captured on anti-human IgG chip, recombinant human CD4 flowed; 1:1 binding model
T1 construct: Bought protein (R&D Systems); also called recombinant CD4
Recorded kon values for a group of binders are listed next.
Use M⁻¹ s⁻¹ as the unit, but write only the number.

anti-CD4 humanized antibody HV3LV0 (antibody, V domains shown, Expressed from the humanized antibody expression vector pKANTEX93) VH: EVQLVESGGGLVQPGRSLRLSCAASGFTFSNYGMAWVRQAPGKGLEWVATISYDGSITYYRDSVKGRFTISRDNSKNTLYLQMNSLRAEDTATYYCTREEQYSSWYFDFWGQGILVTVSS VL: DIQLTQSPSSLSASVGDRVTITCRASQSVSISSHDLMQWYQQKPGKAPKLLIYDAFNLASGVPSRFSGSGSGTDFTLTISSLQPEDFATYYCQQSKDDPYTFGQGTKLEIK    1.33e+06

Query: Any idea what its kon is? The binder is anti-CD4 chimeric antibody KM4045 (antibody, V domains shown, Variable regions of rat KM4065 joined to a '113F type' heavy chain constant region and a human kappa constant region; In the 113F type, part of the human IgG1 Fc is substituted with human IgG3 Fc (US2007/0148165); Expressed in FUT8 knockout CHO cells (0% fucose)) VH: EVQLVESGGGLVQPGRSMKLSCAASGFTFSNYGMAWVRQAPTKGLEWVATISYDGSITYYRDSVKGRFTISRDHAKSTLYLQMNSLRSEDTATYYCTREEQYSSWYFDFWGPGIMVTVSS VL: DIVLTQSPALAVSLGQRATISCRASQSVSISSHDLMQWYQQKPGQQPKLLIYDAFNLASGIPVRFSGSGSGTDFTLTIDPVQADDIATYYCQQSKDDPYTFGAGTKLELK
Reply: 541000

Query: Any idea what its kon is? The binder is anti-CD4 humanized antibody HV0LV0 (antibody, V domains shown, CDRs of KM4065 grafted into human framework regions; Expressed from the humanized antibody expression vector pKANTEX93) VH: EVQLVESGGGLVQPGRSLRLSCAASGFTFSNYGMAWVRQAPGKGLEWVATISYDGSITYYRDSVKGRFTISRDNSKNTLYLQMNSLRAEDTAVYYCAREEQYSSWYFDFWGQGTLVTVSS VL: DIQLTQSPSSLSASVGDRVTITCRASQSVSISSHDLMQWYQQKPGKAPKLLIYDAFNLASGVPSRFSGSGSGTDFTLTISSLQPEDFATYYCQQSKDDPYTFGQGTKLEIK
Reply: 1.47e+06

Query: Any idea what its kon is? The binder is anti-CD4 humanized antibody HV2LV0 (antibody, V domains shown, Expressed from the humanized antibody expression vector pKANTEX93; also called KM8045; humanized antibody KM8045) VH: EVQLVESGGGLVQPGRSLRLSCAASGFTFSNYGMAWVRQAPGKGLEWVATISYDGSITYYRDSVKGRFTISRDNSKNTLYLQMNSLRAEDTAVYYCTREEQYSSWYFDFWGQGILVTVSS VL: DIQLTQSPSSLSASVGDRVTITCRASQSVSISSHDLMQWYQQKPGKAPKLLIYDAFNLASGVPSRFSGSGSGTDFTLTISSLQPEDFATYYCQQSKDDPYTFGQGTKLEIK
Reply: 1.14e+06

Taken from patent US20100310573A1.
